From: the supplement of paper PMC6757056

As shown below, each of these variants has a reported FACS-Seq fitted mean (log10) value.
B1: library; a variant is named by its letters at N, in order (parent)
chain: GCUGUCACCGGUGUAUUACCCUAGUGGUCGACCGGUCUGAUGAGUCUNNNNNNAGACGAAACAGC

Variants of: B1
Experiment: FACS-Seq fitted mean relative fluorescence mCherry/BFP with ligand (log10 relative fluorescence); ligand: hypoxanthine (xanthine aptamer); ligand concentration (+) FACS-Seq: 5 mM; higher = higher reporter protein expression
Details: HEK293T, ligand present: yes
Format: numeric value only, no unit, no commentary.

| SEQUENCE | FACS-Seq fitted mean (log10) |
| --- | --- |
| GCUGUCACCGGUGUAUUACCCUAGUGGUCGACCGGUCUGAUGAGUCUUCGAGUAGACGAAACAGC | 0.407 |
| GCUGUCACCGGUGUAUUACCCUAGUGGUCGACCGGUCUGAUGAGUCUAAUUACAGACGAAACAGC | 0.516 |
| GCUGUCACCGGUGUAUUACCCUAGUGGUCGACCGGUCUGAUGAGUCUAAAAUGAGACGAAACAGC | 0.671 |
| GCUGUCACCGGUGUAUUACCCUAGUGGUCGACCGGUCUGAUGAGUCUGUAGCCAGACGAAACAGC | 0.678 |
| GCUGUCACCGGUGUAUUACCCUAGUGGUCGACCGGUCUGAUGAGUCUUAGGGGAGACGAAACAGC | 0.393 |
| GCUGUCACCGGUGUAUUACCCUAGUGGUCGACCGGUCUGAUGAGUCUUUAAGAAGACGAAACAGC | 0.618 |

We next turn to a different variant, shown below.
Inquiry: // returns reported FACS-Seq fitted mean (log10) for input `GCUGUCACCGGUGUAUUACCCUAGUGGUCGACCGGUCUGAUGAGUCUGUUACUAGACGAAACAGC`
Reply text: 0.466
